- Test system: LNCaP cells
- RUN_DESCRIPTION: Internalization of 18F-labeled ligands into LNCaP cells
- Assay type: cell-based, human
- CONDITION_DESCRIPTION: internalized activity at 1 h in % of reference [125I]XII; c = 0.5 nM; LNCaP cells (125.000 cells/well); 37° C., DMEM/F-12 add. 5% BSA; corrected for non-specific binding (10 μm PMPA); mean ± SD (n = 3)
*1 amine or outer side, *2 acyl side, *3 side chain or, on linkers, in order; H or OH if unused. Where a SMILES comes first, the peptide text is derived from it. Side-chain parts run from the residue outwards. [ ]: non-standard residue; d: D form. The star is where a group is joined. X1 = O=C(O)CC[C@H](NC(=O)N[C@@H](CCC(=O)N[C@H](CCCN*)C(=O)O)C(=O)O)C(=O)O; Benzoyl(4-SiFtBu2) = CC(C)(C)[Si](F)(c1ccc(C(=O)*)cc1)C(C)(C)C; Suc = O=C(CCC(=O)[*:2])[*:1]; dDap = NC[C@@H](N)C(=O)O
Listed here: items and their measured Internalization.
RECORDED_METRIC: Internalization (%)

[[record]]
compound = "CC(C)(C)[Si](F)(c1ccc(C(=O)NC[C@@H](NC(=O)[C@@H](Cc2ccccc2)NC(=O)[C@@H](CCC(=O)O)NC(=O)[C@H](N)CCC(=O)O)C(=O)N[C@H](CCCCNC(=O)CCC(=O)NCCC[C@@H](NC(=O)CC[C@H](NC(=O)N[C@@H](CCC(=O)O)C(=O)O)C(=O)O)C(=O)O)C(=O)O)cc1)C(C)(C)C [SiFA-PSMA ligand 03 i] (H-[dE][dE][dF][dDap](Benzoyl(4-SiFtBu2))[dK]([Suc-X1])-OH)"
units_label = "%"
observed_measurement = 50.33

[[record]]
compound = "C[C@H](O)[C@@H](NC(=O)CC[C@H](NC(=O)N[C@@H](CCC(=O)O)C(=O)O)C(=O)O)C(=O)N[C@H](CNC(=O)c1ccc([Si](F)(C(C)(C)C)C(C)(C)C)cc1)C(=O)N[C@H](CCCCNC(=O)CCC(=O)NCCC[C@@H](NC(=O)CC[C@H](NC(=O)N[C@@H](CCC(=O)O)C(=O)O)C(=O)O)C(=O)O)C(=O)O"
units_label = "%"
observed_measurement = 120.83


----------
- Test system: LNCaP cells
- RUN_DESCRIPTION: Internalization of 18F-labeled ligands into LNCaP cells
- Format: cell-based, human
- CONDITION_DESCRIPTION: internalized activity at 1 h in % of reference [125I]XII; c = 0.5 nM; LNCaP cells (125.000 cells/well); 37° C., DMEM/F-12 add. 5% BSA; corrected for non-specific binding (10 μm PMPA); mean ± SD (n = 3)
RECORDED_METRIC: Internalization (%)

[[record]]
chemical_smiles = "CC(C)(C)[Si](F)(c1ccc(C(=O)NC[C@@H](NC(=O)[C@H](N)CNC(=O)CC[C@H](NC(=O)N[C@@H](CCC(=O)O)C(=O)O)C(=O)O)C(=O)N[C@H](CCCCNC(=O)CCC(=O)NCCC[C@@H](NC(=O)CC[C@H](NC(=O)N[C@@H](CCC(=O)O)C(=O)O)C(=O)O)C(=O)O)C(=O)O)cc1)C(C)(C)C"
test_system = "LNCaP cells"
units_label = "%"
observed_measurement = 231.60

[[record]]
chemical_smiles = "CC(C)(C)[Si](F)(c1ccc(C(=O)NC[C@@H](NC(=O)[C@H](CCC(=O)O)NC(=O)CC[C@H](NC(=O)N[C@@H](CCC(=O)O)C(=O)O)C(=O)O)C(=O)N[C@H](CCCCNC(=O)CCC(=O)NCCC[C@@H](NC(=O)CC[C@H](NC(=O)N[C@@H](CCC(=O)O)C(=O)O)C(=O)O)C(=O)O)C(=O)O)cc1)C(C)(C)C"
test_system = "LNCaP cells"
units_label = "%"
observed_measurement = 175.08

[[record]]
chemical_smiles = "CC(C)(C)[Si](F)(c1ccc(C(=O)NC[C@@H](NC(=O)[C@H](CCCCN)NC(=O)CC[C@H](NC(=O)N[C@@H](CCC(=O)O)C(=O)O)C(=O)O)C(=O)N[C@H](CCCCNC(=O)CCC(=O)NCCC[C@@H](NC(=O)CC[C@H](NC(=O)N[C@@H](CCC(=O)O)C(=O)O)C(=O)O)C(=O)O)C(=O)O)cc1)C(C)(C)C"
test_system = "LNCaP cells"
units_label = "%"
observed_measurement = 142.95

[[record]]
chemical_smiles = "CC(C)(C)[Si](F)(c1ccc(C(=O)NC[C@@H](NC(=O)CNC(=O)CC[C@H](NC(=O)N[C@@H](CCC(=O)O)C(=O)O)C(=O)O)C(=O)N[C@H](CCCCNC(=O)CCC(=O)NCCC[C@@H](NC(=O)CC[C@H](NC(=O)N[C@@H](CCC(=O)O)C(=O)O)C(=O)O)C(=O)O)C(=O)O)cc1)C(C)(C)C"
test_system = "LNCaP cells"
units_label = "%"
observed_measurement = 160.83

[[record]]
chemical_smiles = "CC(C)(C)[Si](F)(c1ccc(C(=O)NC[C@@H](NC(=O)[C@@H](CCCCN)NC(=O)CC[C@H](NC(=O)N[C@@H](CCC(=O)O)C(=O)O)C(=O)O)C(=O)N[C@H](CCCCNC(=O)CCC(=O)NCCC[C@@H](NC(=O)CC[C@H](NC(=O)N[C@@H](CCC(=O)O)C(=O)O)C(=O)O)C(=O)O)C(=O)O)cc1)C(C)(C)C"
test_system = "LNCaP cells"
units_label = "%"
observed_measurement = 104.75

[[record]]
chemical_smiles = "CC(C)(C)[Si](F)(c1ccc(C(=O)N[C@H](CC(=O)N[C@H](CCCCNC(=O)CCC(=O)NCCC[C@@H](NC(=O)CC[C@H](NC(=O)N[C@@H](CCC(=O)O)C(=O)O)C(=O)O)C(=O)O)C(=O)O)C(=O)N[C@H](CCCCNC(=O)CCC(=O)NCCC[C@@H](NC(=O)CC[C@H](NC(=O)N[C@@H](CCC(=O)O)C(=O)O)C(=O)O)C(=O)O)C(=O)O)cc1)C(C)(C)C"
test_system = "LNCaP cells"
units_label = "%"
observed_measurement = 270.03


----------
- Tested on: LNCaP cells
- RUN_DESCRIPTION: Internalization of 18F-labeled ligands into LNCaP cells
- Format: cell-based, human
- CONDITION_DESCRIPTION: internalized activity at 1 h in % of reference [125I]XII; c = 0.5 nM; LNCaP cells (125.000 cells/well); 37° C., DMEM/F-12 add. 5% BSA; corrected for non-specific binding (10 μm PMPA); mean ± SD (n = 3)
*1 amine or outer side, *2 acyl side, *3 side chain or, on linkers, in order; H or OH if unused. Where a SMILES comes first, the peptide text is derived from it. Side-chain parts run from the residue outwards. [ ]: non-standard residue; d: D form. The star is where a group is joined. X1 = O=C(O)CC[C@H](NC(=O)N[C@@H](CCC(=O)N[C@H](CCCN*)C(=O)O)C(=O)O)C(=O)O; Benzoyl(4-SiFtBu2) = CC(C)(C)[Si](F)(c1ccc(C(=O)*)cc1)C(C)(C)C; γGlu = O=C(O)[C@H](CCC(=O)[*:2])N[*:1]; dCit = NC(=O)NCCC[C@@H](N)C(=O)O; Suc = O=C(CCC(=O)[*:2])[*:1]; dOrn = NCCC[C@@H](N)C(=O)O; dDap = NC[C@@H](N)C(=O)O; CO = O=C([*:1])[*:2]
RECORDED_METRIC: Internalization (%)

[[record]]
molecule = "CC(C)(C)[Si](F)(c1ccc(C(=O)NC[C@@H](NC(=O)CNC(=O)[C@@H](CCC(=O)O)NC(=O)[C@H](N)CCC(=O)O)C(=O)N[C@H](CCCCNC(=O)CCC(=O)NCCC[C@@H](NC(=O)CC[C@H](NC(=O)N[C@@H](CCC(=O)O)C(=O)O)C(=O)O)C(=O)O)C(=O)O)cc1)C(C)(C)C"
recorded_metric = "Internalization"
observed_measurement = 121.44

[[record]]
molecule = "CC(C)(C)[Si](F)(c1ccc(C(=O)N[C@H](CC(=O)N[C@H](CC(=O)NCCC[C@@H](NC(=O)c2cc(C(=O)O)cc(C(=O)O)c2)C(=O)NCCCC[C@@H](NC(=O)CC[C@H](NC(=O)N[C@@H](CCC(=O)O)C(=O)O)C(=O)O)C(=O)O)C(=O)O)C(=O)N[C@H](CC(=O)NCCC[C@@H](NC(=O)c2cc(C(=O)O)cc(C(=O)O)c2)C(=O)NCCCC[C@@H](NC(=O)CC[C@H](NC(=O)N[C@@H](CCC(=O)O)C(=O)O)C(=O)O)C(=O)O)C(=O)O)cc1)C(C)(C)C"
recorded_metric = "Internalization"
observed_measurement = 311.75

[[record]]
molecule = "CC(C)(C)[Si](F)(c1ccc(C(=O)NC[C@@H](NC(=O)CNC(=O)CNC(=O)CNC(=O)CC[C@H](NC(=O)N[C@@H](CCC(=O)O)C(=O)O)C(=O)O)C(=O)N[C@H](CCCCNC(=O)CCC(=O)NCCC[C@@H](NC(=O)CC[C@H](NC(=O)N[C@@H](CCC(=O)O)C(=O)O)C(=O)O)C(=O)O)C(=O)O)cc1)C(C)(C)C [SiFA-PSMA ligand 02 e] ({Glu-CO-γGlu}-GGG[dDap](Benzoyl(4-SiFtBu2))[dK]([Suc-X1])-OH)"
recorded_metric = "Internalization"
observed_measurement = 190.26

[[record]]
molecule = "CC(C)(C)[Si](F)(c1ccc(C(=O)NC[C@@H](NC(=O)[C@@H](CCCNC(N)=O)NC(=O)[C@@H](CCCNC(N)=O)NC(=O)[C@H](N)CCCNC(N)=O)C(=O)N[C@H](CCCCNC(=O)CCC(=O)NCCC[C@@H](NC(=O)CC[C@H](NC(=O)N[C@@H](CCC(=O)O)C(=O)O)C(=O)O)C(=O)O)C(=O)O)cc1)C(C)(C)C [SiFA-PSMA ligand 05] (H-[dCit][dCit][dCit][dDap](Benzoyl(4-SiFtBu2))[dK]([Suc-X1])-OH)"
recorded_metric = "Internalization"
observed_measurement = 90.13

[[record]]
molecule = "CC(C)(C)[Si](F)(c1ccc(C(=O)NC[C@@H](NC(=O)[C@@H](CCCN)NC(=O)CC[C@H](NC(=O)N[C@@H](CCC(=O)O)C(=O)O)C(=O)O)C(=O)N[C@H](CCCCNC(=O)CCC(=O)NCCC[C@@H](NC(=O)CC[C@H](NC(=O)N[C@@H](CCC(=O)O)C(=O)O)C(=O)O)C(=O)O)C(=O)O)cc1)C(C)(C)C"
recorded_metric = "Internalization"
observed_measurement = 123.13

[[record]]
molecule = "CC(C)(C)[Si](F)(c1ccc(C(=O)NC[C@@H](NC(=O)[C@@H](Cc2ccccc2)NC(=O)CC[C@H](NC(=O)N[C@@H](CCC(=O)O)C(=O)O)C(=O)O)C(=O)N[C@H](CCCCNC(=O)CCC(=O)NCCC[C@@H](NC(=O)CC[C@H](NC(=O)N[C@@H](CCC(=O)O)C(=O)O)C(=O)O)C(=O)O)C(=O)O)cc1)C(C)(C)C"
recorded_metric = "Internalization"
observed_measurement = 61.61

[[record]]
molecule = "CC(C)(C)[Si](F)(c1ccc(C(=O)NC[C@@H](NC(=O)[C@@H](CC(=O)O)NC(=O)[C@@H](CCC(=O)O)NC(=O)[C@H](N)CCC(=O)O)C(=O)N[C@H](CCCCNC(=O)CCC(=O)NCCC[C@@H](NC(=O)CC[C@H](NC(=O)N[C@@H](CCC(=O)O)C(=O)O)C(=O)O)C(=O)O)C(=O)O)cc1)C(C)(C)C [SiFA-PSMA ligand 03 a] (H-[dE][dE][dD][dDap](Benzoyl(4-SiFtBu2))[dK]([Suc-X1])-OH)"
recorded_metric = "Internalization"
observed_measurement = 135.74

[[record]]
molecule = "CC(C)(C)[Si](F)(c1ccc(C(=O)NC[C@@H](NC(=O)[C@@H](CC(=O)O)NC(=O)CC[C@H](NC(=O)N[C@@H](CCC(=O)O)C(=O)O)C(=O)O)C(=O)N[C@H](CCCCNC(=O)CCC(=O)NCCC[C@@H](NC(=O)CC[C@H](NC(=O)N[C@@H](CCC(=O)O)C(=O)O)C(=O)O)C(=O)O)C(=O)O)cc1)C(C)(C)C"
recorded_metric = "Internalization"
observed_measurement = 162.54

[[record]]
molecule = "CC(C)(C)[Si](F)(c1ccc(C(=O)NC[C@@H](NC(=O)[C@@H](CCCN)NC(=O)[C@@H](CCC(=O)O)NC(=O)[C@H](N)CCC(=O)O)C(=O)N[C@H](CCCCNC(=O)CCC(=O)NCCC[C@@H](NC(=O)CC[C@H](NC(=O)N[C@@H](CCC(=O)O)C(=O)O)C(=O)O)C(=O)O)C(=O)O)cc1)C(C)(C)C [SiFA-PSMA ligand 03 e] (H-[dE][dE][dOrn][dDap](Benzoyl(4-SiFtBu2))[dK]([Suc-X1])-OH)"
recorded_metric = "Internalization"
observed_measurement = 111.98

[[record]]
molecule = "CC(C)(C)[Si](F)(c1ccc(C(=O)NC[C@@H](NC(=O)CCCCCNC(=O)CC[C@H](NC(=O)N[C@@H](CCC(=O)O)C(=O)O)C(=O)O)C(=O)N[C@H](CCCCNC(=O)CCC(=O)NCCC[C@@H](NC(=O)CC[C@H](NC(=O)N[C@@H](CCC(=O)O)C(=O)O)C(=O)O)C(=O)O)C(=O)O)cc1)C(C)(C)C"
recorded_metric = "Internalization"
observed_measurement = 156.95

